- Tested on: MCF7
- protocolSummary: Cytotoxicity against human MCF7 cells after 48 hrs by SRB assay
- Format: functional
- condition: MCF7, 48 h
recordedEndpoint: GI50 (µM)
Write it as a number; the unit µM goes unstated.

Enquiry: Query GI50 for CN(C)CCCNC1C2CC3CC(C2)CC1(Cc1ccccc1)C3 (stereo not drawn)
Return: 9.11

Enquiry: Query GI50 for N[C@H]1c2ccccc2C23CC4CC(CC(C4)[C@H]12)C3 (relative stereo)
Return: 32.6

Enquiry: Query GI50 for Cl.NC1C2CC3CC(C2)CC1(Cc1ccc(F)cc1)C3 (stereo not drawn)
Return: 4.6

Enquiry: Query GI50 for c1ccc2c(c1)CNC1C3CC4CC(C3)CC21C4 (stereo not drawn)
Return: 52

Enquiry: Query GI50 for c1ccc(CC23CC4CC(CC(C4)C2NCCN2CCCCC2)C3)cc1 (stereo not drawn)
Return: 6.75

Enquiry: Query GI50 for c1ccc(CC23CC4CC(CC(C4)C2NCCCn2ccnc2)C3)cc1 (stereo not drawn)
Return: 27

Enquiry: Query GI50 for c1ccc(CC23CC4CC(CC(C4)C2NCCCN2CCOCC2)C3)cc1 (stereo not drawn)
Return: 28.9

Enquiry: Query GI50 for Cl.NC1C2CC3CC(C2)CC1(Cc1ccccc1)C3 (stereo not drawn)
Return: 5.5

Enquiry: Query GI50 for c1ccc(CC23CC4CC(CC(C4)C2NCCN2CCNCC2)C3)cc1 (stereo not drawn)
Return: 21.1

Enquiry: Query GI50 for CN(C)CCNC1C2CC3CC(C2)CC1(Cc1ccccc1)C3 (stereo not drawn)
Return: 25.9

Enquiry: Query GI50 for `O=c1[nH]cc(F)c(=O)[nH]1`
Return: 8.4

Enquiry: Query GI50 for NC1C2CC3CC(C2)CC1(c1ccccc1)C3 (stereo not drawn)
Return: 69.3

Enquiry: Query GI50 for COc1ccc(CC23CC4CC(CC(C4)C2N)C3)cc1.Cl (stereo not drawn)
Return: 7.4
